The values you see were collected from BindingDB's records for doi:10.1016/j.bmc.2008.07.037.

procedure-details: Inhibition of glucocorticoid-mediated human MMP1 expression in PMA stimulated A549 cells assessed as MMP1 protein level by ELISA
measurement-label: pEC50
Worth noting: pEC50 values are minus log10 of concentrations stated in mol/L.

query: Provide one value: measured pEC50 of CCC(C)(C)NC(=O)O[C@]1(C(=O)CO)[C@@H](C)C[C@H]2[C@@H]3CCC4=CC(=O)C=C[C@]4(C)[C@@]3(F)[C@@H](O)C[C@@]21C
result: 7.27

query: Name the recorded pEC50 of the compound listed here: C[C@H]1C[C@H]2[C@@H]3CCC4=CC(=O)C=C[C@]4(C)[C@@]3(F)[C@@H](O)C[C@]2(C)[C@@]1(OC(=O)NC1CCCC1)C(=O)CO
result: 8.55

query: Given the compound CCCCCNC(=O)O[C@]1(C(=O)CO)[C@@H](C)C[C@H]2[C@@H]3CCC4=CC(=O)C=C[C@]4(C)[C@@]3(F)[C@@H](O)C[C@@]21C , write its reported pEC50.
result: 7.74

###

procedure-details: Inhibition of glucocorticoid-mediated human MMP1 expression in PMA stimulated A549 cells assessed as MMP1 protein level by ELISA
measurement-label: EC50
Output should be the measured figure followed by the unit it is expressed in.

query: Give reported EC50 value for C[C@H]1C[C@H]2[C@@H]3CCC4=CC(=O)C=C[C@]4(C)[C@@]3(F)[C@@H](O)C[C@]2(C)[C@@]1(OC(=O)NC(C)(C)CC(C)(C)C)C(=O)CO
result: 23.2 nM

query: Please list EC50 recorded for the molecule CCCNC(=O)O[C@]1(C(=O)CO)[C@@H](C)C[C@H]2[C@@H]3CCC4=CC(=O)C=C[C@]4(C)[C@@]3(F)[C@@H](O)C[C@@]21C
result: 18.7 nM

query: Identify measured EC50 associated with CC(C)NC(=O)O[C@]1(C(=O)CO)[C@@H](C)C[C@H]2[C@@H]3CCC4=CC(=O)C=C[C@]4(C)[C@@]3(F)[C@@H](O)C[C@@]21C
result: 1.9 nM

query: Assign EC50 to the following record: CCCCNC(=O)O[C@]1(C(=O)CO)[C@@H](C)C[C@H]2[C@@H]3CCC4=CC(=O)C=C[C@]4(C)[C@@]3(F)[C@@H](O)C[C@@]21C
result: 22 nM

query: Query EC50 for C[C@H](NC(=O)O[C@]1(C(=O)CO)[C@@H](C)C[C@H]2[C@@H]3CCC4=CC(=O)C=C[C@]4(C)[C@@]3(F)[C@@H](O)C[C@@]21C)c1ccccc1
result: 4.9 nM

query: Specify reported EC50 for the molecule shown: CCNC(=O)O[C@]1(C(=O)CO)[C@@H](C)C[C@H]2[C@@H]3CCC4=CC(=O)C=C[C@]4(C)[C@@]3(F)[C@@H](O)C[C@@]21C
result: 15.9 nM

query: Identify the reported EC50 for the following entry. C[C@H]1C[C@H]2[C@@H]3CCC4=CC(=O)C=C[C@]4(C)[C@@]3(F)[C@@H](O)C[C@]2(C)[C@@]1(OC(=O)NCC(C)(C)C)C(=O)CO
result: 0.1 nM

query: Identify the reported EC50 for the following entry. COC(=O)[C@H](C)NC(=O)O[C@]1(C(=O)CO)[C@@H](C)C[C@H]2[C@@H]3CCC4=CC(=O)C=C[C@]4(C)[C@@]3(F)[C@@H](O)C[C@@]21C
result: 83 nM

query: Please look at this molecule and report its EC50: C[C@H]1C[C@H]2[C@@H]3CCC4=CC(=O)C=C[C@]4(C)[C@@]3(F)[C@@H](O)C[C@]2(C)[C@@]1(OC(=O)NCCC(C)(C)C)C(=O)CO
result: 21 nM

query: Provide only the value of recorded EC50 for C=CCNC(=O)O[C@]1(C(=O)CO)[C@@H](C)C[C@H]2[C@@H]3CCC4=CC(=O)C=C[C@]4(C)[C@@]3(F)[C@@H](O)C[C@@]21C
result: 39 nM

query: Identify measured EC50 associated with CCC(C)NC(=O)O[C@]1(C(=O)CO)[C@@H](C)C[C@H]2[C@@H]3CCC4=CC(=O)C=C[C@]4(C)[C@@]3(F)[C@@H](O)C[C@@]21C (some centres undefined)
result: 0.8 nM

query: Tell me EC50 reported for C[C@H]1C[C@H]2[C@@H]3CCC4=CC(=O)C=C[C@]4(C)[C@@]3(F)[C@@H](O)C[C@]2(C)[C@@]1(OC(=O)NC1CCCCC1)C(=O)CO
result: 1.3 nM

query: Provide EC50 value for the following molecule: C[C@H]1C[C@H]2[C@@H]3CCC4=CC(=O)C=C[C@]4(C)[C@@]3(F)[C@@H](O)C[C@]2(C)[C@@]1(OC(=O)NC(C)(C)C)C(=O)CO
result: 1.6 nM

query: Provide EC50 value for the following molecule: C[C@H]1C[C@H]2[C@@H]3CCC4=CC(=O)C=C[C@]4(C)[C@@]3(F)[C@@H](O)C[C@]2(C)[C@@]1(OC(=O)NC12CC3CC(CC(C3)C1)C2)C(=O)CO
result: 3.4 nM
